These data points were gathered from PubChem BioAssay (EPA / NIEHS).

Read-out: cysteine-aspartic acid protease (CASP8), CASP8 (gene 841)
TEST: LTEA_HepaRG_CASP8: Life Technologies and Expression Analysis (LTEA) Assay for cysteine-aspartic acid protease (CASP8) using HepaRG (AID 2283480)
DETAILS: mRNA level, 48 h; actives raise or lower the signal
Activity calls are given as the source filed them. Rule for the calls: active = hit-call score of the fitted dose curve at least 0.9, where 1 is the maximum; inactive = score below 0.9.
Possible outcomes: class 1 (active), class 0 (inactive)

[[record]]
compound = "CCCCOCCO"
group_label = "class 0"

[[record]]
compound = "CCCCC(CC)COC(=O)CCCCC(=O)OCC(CC)CCCC (stereo not drawn)"
group_label = "class 0"

[[record]]
compound = "COc1ccc([N+](=O)[O-])cc1N"
group_label = "class 0"

[[record]]
compound = "CC(C)(C)CC(C)(C)c1ccc(O)c(-n2nc3ccccc3n2)c1"
group_label = "class 0"

[[record]]
compound = "O=[N+]([O-])c1ccc(O)cc1"
group_label = "class 0"

[[record]]
compound = "CCC(C)(C)C1CCC(O)CC1 (stereo not drawn)"
group_label = "class 0"

[[record]]
compound = "NC(=O)N(O)[C@@H]1C=C[C@H](Oc2cccc(Oc3ccc(F)cc3)c2)C1"
group_label = "class 0"

[[record]]
compound = "Nc1cccc2c(N)cccc12"
group_label = "class 0"

[[record]]
compound = "CCN(CC)CCNc1ccc(CNC=O)c2sc3ccc(OC)cc3c(=O)c12"
group_label = "class 1"

[[record]]
compound = "Cc1cc(CCN2CCN(c3nsc4ccccc34)CC2)cc2c1NC(=O)CC2(C)C"
group_label = "class 0"

[[record]]
compound = "CC(C)CCCCCCOC(=O)CCCCC(=O)OCCCCCCC(C)C"
group_label = "class 0"

[[record]]
compound = "c1ccc2cc3c(ccc4ccccc43)cc2c1"
group_label = "class 0"

[[record]]
compound = "CCCCCCC(=O)O"
group_label = "class 0"

